Catalogue of IC50 values
Molecular target: T. gondii DHFR (tgDHFR) (Toxoplasma gondii)
Sequence (Q07422 whole entry): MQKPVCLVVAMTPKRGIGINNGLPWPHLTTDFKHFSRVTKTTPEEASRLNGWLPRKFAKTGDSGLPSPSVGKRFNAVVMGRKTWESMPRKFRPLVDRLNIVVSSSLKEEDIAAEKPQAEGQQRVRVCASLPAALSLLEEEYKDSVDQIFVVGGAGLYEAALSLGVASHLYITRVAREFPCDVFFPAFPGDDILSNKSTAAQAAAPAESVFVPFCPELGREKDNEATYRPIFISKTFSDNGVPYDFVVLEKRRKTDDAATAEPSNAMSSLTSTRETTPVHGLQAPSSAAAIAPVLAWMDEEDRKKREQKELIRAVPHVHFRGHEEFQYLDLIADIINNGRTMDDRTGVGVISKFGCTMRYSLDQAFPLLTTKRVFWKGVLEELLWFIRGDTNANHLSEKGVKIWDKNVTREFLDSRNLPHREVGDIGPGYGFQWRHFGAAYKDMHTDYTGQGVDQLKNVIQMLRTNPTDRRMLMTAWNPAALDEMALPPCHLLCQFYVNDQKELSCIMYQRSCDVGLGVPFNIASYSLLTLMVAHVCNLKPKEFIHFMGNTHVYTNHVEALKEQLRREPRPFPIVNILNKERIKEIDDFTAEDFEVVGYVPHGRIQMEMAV
Experiment: biochemical
Details: Table 16; pIC50 = -log10 IC50; at least three replicates; read-out: tgDHFR pIC50-DHFR primary assay (converted)
Entry format: amount then unit.

{"columns": ["Compound", "IC50"],
 "data": [
  ["COc1ncc(-c2ccnc(N3CCN(c4cnc(N)nc4N)CC3)c2)cn1", "0.00437 µM"],
  ["COc1ncc(-c2cccc(N3CCC(c4cnc(N)nc4N)CC3)c2)cn1", "0.00339 µM"]
]}

Fill in: IC50 of COc1ncc(-c2cc(N3CCN(c4cnc(N)nc4N)CC3)ccn2)cn1 is ___
0.00676 µM

Next record, please: Nc1ncc(N2CCN(c3ccnc(-c4ccccc4)c3)CC2)c(N)n1
0.0138 µM

Next record, please: N#Cc1ncc(-c2cccc(N3CCN(c4cnc(N)nc4N)CC3)c2)cn1
0.00363 µM

Next record, please: Nc1ncc(C2CCN(c3cnc(C(F)(F)F)nc3)CC2)c(N)n1
1.74 µM

Next record, please: C[C@@H]1CN(c2cnc(N)nc2N)CCN1c1cccc(C2CCOCC2)c1
0.00229 µM

Next record, please: Nc1ncc(C2=CCN(c3cnc(C(F)(F)F)nc3)CC2)c(N)n1
0.851 µM

Next record, please: Nc1ncc(N2CCN(c3cccc(OC4CCOCC4)c3)CC2)c(N)n1
0.017 µM

Next record, please: COc1ncc(-c2ccc(F)c(N3CCN(c4cnc(N)nc4N)CC3)c2)cn1
0.00871 µM

Next record, please: Nc1ncc(N2CCN(c3ccnc(C(F)(F)F)c3)CC2)c(N)n1
0.0398 µM

Next record, please: C[C@H]1CN(c2cnc(N)nc2N)CCN1c1cccc(C2=CCOCC2)c1
0.0275 µM

Next record, please: COc1ncc(-c2ccccc2N2CCN(c3cnc(N)nc3N)CC2)cn1
0.871 µM

Next record, please: C[C@@H]1CN(c2cnc(N)nc2N)CCN1c1cccc(C2=CCOCC2)c1
0.00182 µM

Next record, please: COc1ncc(-c2cccc(N3CCN(c4cnc(N)nc4N)CC3)n2)cn1
0.00102 µM

Next record, please: C[C@H]1CN(c2cnc(N)nc2N)CCN1c1cccc(C2CCOCC2)c1
0.0316 µM

Next record, please: COc1ncc(-c2cncc(N3CCN(c4cnc(N)nc4N)CC3)c2)cn1
0.0123 µM

Next record, please: Cc1ccc(-c2cc(N3CCN(c4cnc(N)nc4N)CC3)ccn2)cc1
0.011 µM

Next record, please: Nc1ncc(N2CCN(c3cccc(OC4CCOC4)c3)CC2)c(N)n1 (centres unmarked)
0.0234 µM

Next record, please: COc1ncc(-c2cc(N3CCN(c4cnc(N)nc4N)CC3)ccc2F)cn1
0.00251 µM

Next record, please: Nc1ncc(C2CCN(c3cccc(C4CCOCC4)c3)CC2)c(N)n1
0.0275 µM

Next record, please: Nc1ncc(C2=CCN(c3cccc(C4=CCOCC4)c3)CC2)c(N)n1
0.0126 µM

Next record, please: Nc1ncc(N2CCN(c3cccc(-c4cnc(O)nc4)n3)CC2)c(N)n1
0.0012 µM

Next record, please: Nc1ncc(N2CCN(c3ccccc3C3CCOCC3)CC2)c(N)n1
3.02 µM

Next record, please: Nc1ncc(C2CCN(c3ccc(C(F)(F)F)nc3)CC2)c(N)n1
0.2 µM

Next record, please: COc1ncc(-c2cccc(N3CCN(c4cnc(N)nc4N)CC3)c2F)cn1
0.0302 µM
